- system: GSK3α (GST-full length GSK3α) (Homo sapiens (Human), UniProt P49840)
- Sequence (P49840 whole entry): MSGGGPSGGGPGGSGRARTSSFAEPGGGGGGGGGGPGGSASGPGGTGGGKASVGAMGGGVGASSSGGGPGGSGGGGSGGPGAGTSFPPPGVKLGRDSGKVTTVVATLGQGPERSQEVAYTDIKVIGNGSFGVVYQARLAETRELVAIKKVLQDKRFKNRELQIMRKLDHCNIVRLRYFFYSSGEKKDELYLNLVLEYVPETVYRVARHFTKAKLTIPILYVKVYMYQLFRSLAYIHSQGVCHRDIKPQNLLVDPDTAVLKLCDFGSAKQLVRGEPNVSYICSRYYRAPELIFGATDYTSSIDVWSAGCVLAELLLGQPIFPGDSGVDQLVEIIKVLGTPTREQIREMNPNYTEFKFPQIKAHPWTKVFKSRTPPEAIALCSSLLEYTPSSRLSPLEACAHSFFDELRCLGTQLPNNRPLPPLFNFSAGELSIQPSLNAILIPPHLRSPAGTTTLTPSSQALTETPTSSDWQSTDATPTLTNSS
- experimentalDetails: GSK3α TR-FRET kinase assay
- Type: biochemical
- testParameters: 1 nM GSK3α, 4 μM ATP, 30 minute preincubation, Table 16; read-out: GSK3-A TR-FRET BIOCHEMICAL (TR-FRET); IC50
- Description: TR-FRET Assay: The assay was performed in a white, 384 well, low volume, flat bottom plate (Grenier). After a 30 minute preincubation in assay buffer with the indicated concentration of compound, the kinase activity was initiated by the addition of the substrates. […] After 60 min at room temperature the plate was read on Envision plate reader using Ex: 340 nm, Em: 615 nm and […]. The normalized 665/615 Signal ratio versus log compound concentration was analyzed by XLFIT to yield IC50 values.
pIC50: −log10 of the molar value.
attributeMeasured: pIC50

Suppose we examine the compound CCC1(c2cccc(C(C)C)c2)C2=C(CC(C)(C)NC2=O)Nc2n[nH]cc21 (stereo not drawn) [Compound 949761] ; what pIC50 value has been reported?
≥ 7.00

Suppose we examine the compound CC1(C)CC(=O)C2=C(C1)Nc1n[nH]cc1[C@]21CCO[C@@H](C(C)(C)C)C1 [Compound 912106] ; what pIC50 value has been reported?
6.00 to 7.00

Suppose we examine the compound CC[C@]1(c2cccc(C(C)C)c2)C2=C(CC(C)(C)NC2=O)Nc2n[nH]c(C(F)(F)F)c21 [Compound 950493] ; what pIC50 value has been reported?
6.00 to 7.00

Suppose we examine the compound C[C@@H]1C[C@H](C)C(=O)C2=C1Nc1n[nH]cc1C21CCOCC1 [Compound 893316] ; what pIC50 value has been reported?
≥ 7.00

Suppose we examine the compound CCC1(c2cccc(Oc3ncccn3)c2)C2=C(CC(C)(C)NC2=O)Nc2n[nH]c(F)c21 (stereo not drawn) [Compound 950615] ; what pIC50 value has been reported?
≥ 7.00

Suppose we examine the compound CCC1(c2cccc(-c3c(C)nnn3C)c2)C2=C(CC(C)(C)C2=O)Nc2n[nH]cc21 (stereo not drawn) [Compound 950815] ; what pIC50 value has been reported?
6.00 to 7.00

Suppose we examine the compound CCC1(c2cccc(-c3c(C)nn(C)c3C)c2)C2=C(CC(C)(C)CC2=O)Nc2n[nH]cc21 (stereo not drawn) [Compound 883851] ; what pIC50 value has been reported?
≥ 7.00

Suppose we examine the compound CC[C@@]1(c2cccc(-c3cn(C)nc3C)c2)C2=C(CC(C)(C)NC2=O)Nc2n[nH]c(F)c21 [Compound 949185] ; what pIC50 value has been reported?
≥ 7.00

Suppose we examine the compound CCC1(c2cccc(-c3ccnc(C)c3)c2)C2=C(CC(C)(C)C2=O)Nc2n[nH]cc21 (stereo not drawn) [Compound 949840] ; what pIC50 value has been reported?
6.00 to 7.00

Suppose we examine the compound CCC1(c2cccc(N(C)c3ccc(F)nc3)c2)C2=C(CC(C)(C)CC2=O)Nc2n[nH]cc21 (stereo not drawn) [Compound 917152] ; what pIC50 value has been reported?
≥ 7.00

Suppose we examine the compound CC1(C)CC(=O)C2=C(C1)Nc1n[nH]cc1[C@]21CCC[C@H](C#N)C1 [Compound 946078] ; what pIC50 value has been reported?
5.30 to 6.00

Suppose we examine the compound CCC1(c2cccc(-c3ccnn3C)c2)C2=C(CC(C)(C)CC2=O)Nc2n[nH]c(C)c21 (stereo not drawn) [Compound 883992] ; what pIC50 value has been reported?
≥ 7.00

Suppose we examine the compound CCC1(c2cccc(S(=O)(=O)C3CCCCC3)c2)C2=C(CC(C)(C)CC2=O)Nc2n[nH]cc21 (stereo not drawn) [Compound 918273] ; what pIC50 value has been reported?
≥ 7.00

Suppose we examine the compound CCC1(c2cccc(-c3ccn(C)n3)c2)C2=C(CC(C)(C)CC2=O)Nc2n[nH]c(C)c21 (stereo not drawn) [Compound 883999] ; what pIC50 value has been reported?
≥ 7.00

Suppose we examine the compound CCN1CC2(C1)C1=C(CC(C)(C)CC1=O)Nc1n[nH]cc12 [Compound 929448] ; what pIC50 value has been reported?
< 5.30

Suppose we examine the compound CCC1(c2cccc(S(=O)(=O)C(C)C)c2)C2=C(CC(C)(C)CC2=O)Nc2n[nH]cc21 (stereo not drawn) [Compound 912169] ; what pIC50 value has been reported?
≥ 7.00

Suppose we examine the compound CCC1(c2cccc(Nc3ncccn3)c2)C2=C(CC(C)(C)CC2=O)Nc2n[nH]cc21 (stereo not drawn) [Compound 913334] ; what pIC50 value has been reported?
≥ 7.00

Suppose we examine the compound CCC1(c2cccc(-c3ccncc3F)c2)C2=C(CC(C)(C)NC2=O)Nc2n[nH]c(C(F)F)c21 (stereo not drawn) [Compound 951599] ; what pIC50 value has been reported?
6.00 to 7.00

Suppose we examine the compound CC1(C)CC(=O)C2=C(C1)Nc1n[nH]cc1C21CN(Cc2cnc3ccccn23)C1 [Compound 932654] ; what pIC50 value has been reported?
< 5.30

Suppose we examine the compound CC[C@@]1(c2cccc(N(C)c3ncccn3)c2)C2=C(CC(C)(C)C2=O)Nc2n[nH]cc21 [Compound 952212] ; what pIC50 value has been reported?
≥ 7.00

Suppose we examine the compound CC[C@@]1(c2cccc(C(F)(F)F)c2)C2=C(CC(C)(C)NC2=O)Nc2n[nH]c(F)c21 [Compound 957497] ; what pIC50 value has been reported?
< 5.30

Suppose we examine the compound CC1(C)CC(=O)C2=C(C1)Nc1n[nH]cc1C21CN(C(=O)c2ccccc2)C1 [Compound 893315] ; what pIC50 value has been reported?
< 5.30

Suppose we examine the compound CCC1(c2cccc(Cc3ncccn3)c2)C2=C(CC(C)(C)NC2=O)Nc2n[nH]cc21 (stereo not drawn) [Compound 950151] ; what pIC50 value has been reported?
≥ 7.00

Suppose we examine the compound CC[C@]1(c2cccc(-c3ccnn3C3CC3(F)F)c2)C2=C(CC(C)(C)NC2=O)Nc2n[nH]cc21 (stereo partly drawn) [Compound 950824] ; what pIC50 value has been reported?
≥ 7.00

Suppose we examine the compound CC[C@]1(c2cccc(C(F)(F)F)c2)C2=C(CCN(c3cnn(C)c3)C2=O)Nc2n[nH]cc21 [Compound 949271] ; what pIC50 value has been reported?
6.00 to 7.00

Suppose we examine the compound CCC1(c2cccc(-c3ccnc4ccccc34)c2)C2=C(CC(C)(C)CC2=O)Nc2n[nH]cc21 (stereo not drawn) [Compound 932631] ; what pIC50 value has been reported?
≥ 7.00

Suppose we examine the compound CC1(C)CC(=O)C2=C(C1)Nc1n[nH]cc1C2(C)CCc1ccccc1 (stereo not drawn) [Compound 819562] ; what pIC50 value has been reported?
5.30 to 6.00

Suppose we examine the compound CC1(C)CC(=O)C2=C(C1)Nc1n[nH]cc1C21CN(c2ccccn2)C1 [Compound 945477] ; what pIC50 value has been reported?
5.30 to 6.00

Suppose we examine the compound CCC1(c2cccc(-c3cn(C)nc3C)c2)C2=C(CC(C)(C)CC2=O)Nc2n[nH]c(C)c21 (stereo not drawn) [Compound 884003] ; what pIC50 value has been reported?
≥ 7.00

Suppose we examine the compound CN(C)C(=O)C1CCC2(CC1)C1=C(CC(C)(C)CC1=O)Nc1n[nH]cc12 (stereo not drawn) [Compound 945395] ; what pIC50 value has been reported?
6.00 to 7.00
